Data provenance is a melting point compilation (Tetko et al.).

recorded-metric: melting point (°C)
Report only the number, with the unit °C understood.

Illustrative cases are given below, each with its answer.
CC1(/C(=N\Nc2ccc([N+](=O)[O-])cc2[N+](=O)[O-])C(=O)O)CCC(C(=O)O)C1(C)C (stereo unspecified) :: 191
CCCCCCC(=O)OCCC :: -63.5
CC1=NN(CN2CCOCC2)C(=O)/C1=N\Nc1ccc(C(=O)O)cc1 :: 187
CCCCCC(C)Br (stereo unspecified) :: 47
O=C(O)c1cc(I)c(O)c(I)c1 :: 237

Which melting point reading was recorded for the compound CCCCC(C#N)(Cn1ccnc1)c1ccccc1 (stereo unspecified) ?
161

Value lookup for melting point; key = NCC(O)COc1ccccc1 (stereo unspecified)
146

Give the measured melting point of `CN(C)C(=S)Sc1ccc([N+](=O)[O-])cc1[N+](=O)[O-]` .
152

----------
Everything with melting point lower than 200 °C is f; everything else, including exactly 200 °C, is t.

COC(=O)c1c(N)sc2c1CCCC2 :: f
O=C(NC(Cc1ccccn1)C(=O)O)OCC1c2ccccc2-c2ccccc21 (stereo not drawn) :: f
COc1ccc(OC)c(N=C=O)c1 :: f
C=C1C(=O)C23C(OC(C)=O)CC4C5(C)CCCC4(C(OC(C)=O)OC5)C2C(OC(C)=O)CC1C3OC(C)=O (stereo not drawn) :: t
Cc1ccc(C(c2ccc(C)o2)c2ccccc2Br)o1 :: f

For this compound, is measured melting point 200 °C or higher? O=C(C1=NOC2C(=O)N(c3cc(Cl)ccc3Cl)C(=O)C12)c1ccc([N+](=O)[O-])cc1 (stereo not drawn)
t

Identify whether the reported melting point of the following compound is 200 °C or greater: CC(=O)SC1CC2=CC(=O)CCC2(C)C2CCC3(C)C(CCC34CCC(=O)O4)C12 (stereo not drawn)
t

Could you please find out whether `Clc1cc2c(c(Cl)c1Cl)Oc1cc(Cl)c(Cl)c(Cl)c1O2` has melting point that meets 200 °C or exceeds it?
t

Does the reported melting point for `COc1ccc2[nH]cc(CCN)c2c1` fall at or above the 200 °C mark?
f

----------
Entries and their melting point
# output: bare number, implied unit °C

NCc1cccc(-c2ccsc2)c1 :: 80
Cc1cc(-c2ccccc2)nnc1NCCN1CCOCC1 :: 122
O=C(Cl)/C=C/c1ccc(/C=C/C(=O)Cl)cc1 :: 171
O=C(c1ccccc1)c1nn2c(C(F)(F)F)nnc2s1 :: 157
O=C(O)CCc1ccc(C(=O)O)cc1 :: 290
COc1cc(C)c2c(c1)CC2=O :: 83
FC(F)(F)C(F)(Cl)C(F)(Cl)C(F)(F)F (stereo not drawn) :: -68
OCC1CCCCN1 (stereo not drawn) :: 69

Attention now turns to another entry.
Requested field: melting point. Item: `COC(=O)c1nc(Cl)c(Cl)nc1N`
232

----------
melting point values by entry

Guide cases for melting point, answers given:
OC1CC(O)C(O)C(O)C1O (stereo not drawn) :: 236 °C
CCCCC=CC=CC=CCCCCCCCC(=O)O :: 71.5 °C
CC1(C)C(=O)OC2=C(CCCC2=Cc2ccccc2)C1c1ccccc1 (stereo not drawn) :: 155 to 157 °C
COc1cc(N)cc(OC)c1 :: 55 °C
CC(c1ccccc1)C(NC(=O)OC(C)(C)C)C(=O)O (stereo not drawn) :: 100 to 105 °C
Cc1ccc(S(=O)(=O)OCCOCc2ccccc2)cc1 :: 48 to 51 °C

Bench note: what melting point did `N#CN=C(Oc1ccccc1)Oc1ccccc1` show?
157 °C

If you can, please state the reported melting point value of `C[Si](c1ccccc1)(c1ccccc1)[Si](C)(c1ccccc1)c1ccccc1` .
138 to 140 °C

Value lookup for melting point; key = `CC(C)c1cc(C(C)C)c(S(N)(=O)=O)c(C(C)C)c1`
115 °C

Query: melting point; subject: `CCOC(=O)c1c2ccccc2nn1C`
50 to 52 °C

Given `O=C(Cl)c1ccc(OC2CCOCC2)cc1` , state its recorded melting point.
37.5 to 39 °C

Consider the molecule `O=C(O)c1cc(Cl)cc(Cl)c1Cl` and give its measured melting point.
166 °C

Returns the measured melting point for the input molecule. Input: CC(NC(=O)C(F)(F)C(F)(F)C(F)(F)C(F)(F)C(F)(F)C(F)(F)C(F)(F)C(F)(F)F)c1ccccc1 (stereo not drawn)
100 °C

----------
Measured melting point, listed per entry for reference.
Unit °C implied. Number only.

N#CC1CN(Cc2ccccc2)CN(Cc2ccccc2)C1 :: 80
CCCCCCCCN(C)CCCCCCCC :: -30.1
CC(C)OC(=O)C(C(=O)OC(C)C)=C1SCCS1 :: 54.9
CC(=O)OC1CC2C3CCC(C(C)CCCC(C)C)C3(C)CCC2C2(C)CCC(=O)CC12O (centres undefined) :: 161
C[Si]1(C)O[Si](C)(C)O[Si](C)(C)O[Si](C)(C)O[Si](C)(C)O[Si](C)(C)O[Si](C)(C)O[Si](C)(C)O1 :: 31.5

I would be grateful if you could share the reported melting point for `Nc1cc(Cl)c(S(N)(=O)=O)cc1S(N)(=O)=O` .
254

// melting point lookup, key: `CCOC(=O)NP(=O)(N1CC1)N1CC1`
89

What value of measured melting point is listed for Fc1ccc(C2CCNCC2COc2ccc3c(c2)OCO3)cc1 (centres undefined) ?
130

# lookup: melting point of `CC(C)Oc1cccc(OC(C)C)c1-c1ccccc1P(C1CCCCC1)C1CCCCC1`
124

Entry under review: `N#CCC(=O)OCc1ccccc1` . Reported melting point?
28

Name the recorded melting point for `CSc1nc2[nH]c(=S)n(-c3ccccc3C(=O)O)c(=O)c2n1C` .
284

State the recorded melting point for this entry: `COC(=O)c1c(Cl)cccc1Cl`
28

// melting point lookup, key: `O=C1Cc2cccc(Cl)c21`
71

Given `ON=C(C1CC1)C1CC1` , state its recorded melting point.
76.5

Requested read-out: melting point. Entry: `CC(=O)Nc1ccc([N+](=O)[O-])cn1`
200

Can you look up the measured melting point of `CCCCCOC(=O)CC` for me?
-73.1

I would be grateful if you could share the reported melting point for `CC(=O)c1c(C)c([N+](=O)[O-])c(C(C)(C)C)c([N+](=O)[O-])c1C` .
136

Please look up its melting point: `OCCN(CCO)c1ccccc1`
57

What does the data say about its melting point? Entry: CC1CCC(C(C)C)C(OC(=O)CC#N)C1 (centres undefined)
84

----------
Overview of recorded melting point for various compounds
Return type: number; implicit unit °C.

NC(=O)Nc1ccccc1 :: 147

Turning to the following compound.
Which melting point is reported for this compound? `COc1ccc(/C=C(/C#N)c2nc3ccccc3c(=O)[nH]2)cc1`
280

----------
# strict inequality: melting point < 100 °C yields YES, everything else yields NO

CC12C=CC3=C4CCC(=O)C=C4CCC3C1CCC2O (configuration not stated) :: YES

In plain terms, does BrCC1CO1 (configuration not stated) come in under 100 °C for melting point?
YES

Find out if reported melting point for `CCN1CCN(c2cc3c(cc2F)c(=O)c(C(=O)O)cn3C2CC2)CC1` is less than 100 °C
NO

Determine whether this molecule shows melting point lower than 100 °C (ties excluded): `NCCNCCNCCNCCN`
YES

# TODO verify melting point < 100 °C strictly for this molecule: COc1ccc2c3c1OC1C(O)CC=C4C(C2)N(C)CCC431 (configuration not stated)
NO

Is melting point strictly under 100 °C for the entry `O=P1(O)Oc2ccc3ccccc3c2-c2c(ccc3ccccc23)O1` ?
NO

Problem: For the molecule `NC(=O)c1cccc(F)c1F` , is melting point under 100 °C?
NO

Does this molecule meet the criterion melting point < 100 °C? C=C1C(=O)OC2C1CCC(C)C1(O)C=CC(=O)C21C (configuration not stated)
NO

----------
Listing of recorded melting point by entry.
Numeric only. Scale: °C

Worked examples, 3 compounds total:
CN(C)CCC#N :: -43
Cc1[nH]c(=O)n(C(C)C)c(=O)c1Br :: 158
CNc1ccc2oc(CC3OC4(CCC3C)OC(C(C)C(=O)c3ccc[nH]3)C(C)CC4C)nc2c1C(=O)O (configuration not stated) :: 182

What value of melting point has been reported for the following compound? `COc1cccc(C2C(C(=O)OC(C)C)=C(C)NC(C)=C2C(=O)OC(C)C)c1OC`
141

Which melting point value belongs to `O=Cc1cccc2c1CCOC2=O` ?
140

Given the entry CC(=O)c1ccc(OC2OC(CO)C(O)C(O)C2O)cc1 (configuration not stated) , report its measured melting point.
196

Query (compound): `COc1ccc(C=C(C#N)C(N)=O)cc1` ; field requested: melting point
321

----------
Label key: fulfilled means melting point under 80 °C; not fulfilled means melting point of 80 °C or more.

CCCCCCCCCF :: fulfilled
O=C(Nc1ccccc1[N+](=O)[O-])C(F)(F)C(F)(F)C(F)(F)C(F)(F)C(F)(F)C(F)(F)C(F)(F)C(F)(F)F :: not fulfilled
O=C(CO)[C@@H](O)[C@H](O)[C@@H](O)CO :: not fulfilled
C1=CCCCC=C1 :: fulfilled
Cc1ccc(C(C)(C)C)cc1S :: fulfilled
O=c1[nH]c2ccccc2c(-c2ccccc2)c1O :: not fulfilled

# strict comparison: is reported melting point < 80 °C? input = CC(CCCO)C1CCC2C3CCC4CCCCC4(C)C3CCC12C (stereo not drawn)
not fulfilled

melting point strictly < 80 °C for this molecule? CC1=C(C(=O)OCc2ccccc2)C(c2ccccc2)N(C)C(=O)N1C (stereo not drawn)
not fulfilled

Lab note: melting point threshold 80 °C. Does this molecule come in strictly under it? `Cc1ccc(I)cc1N`
fulfilled
